Each recorded value in this set is attributed to the supplement of paper PMC6992640.

Entries and their cell viability values follow.
# Tested on: HCI13 (cells of an ER-positive luminal breast cancer xenograft);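 also: PDX cells carrying CMV promoter-driven luciferase, viability read as total photon flux per second by IVIS imaging following D-luciferin, vehicle control 0.1% DMSO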
# experimental_details: cell viability (% of vehicle); higher = less cytotoxic
# assay_context: 10 µM; 72 h

// worked examples, cell viability included
{"compound": "COc1cc2nc(N(C)CCCNC(=O)C3CCCO3)nc(N)c2cc1OC.Cl (centres undefined) [Alfuzosin HCl]", "test_system": "HCI13", "value": 101}
{"compound": "Cn1c([N+](=O)[O-])cnc1COC(N)=O", "test_system": "HCI13", "value": 102}
{"compound": "CC(C)C(=O)Nc1ccc([N+](=O)[O-])c(C(F)(F)F)c1 [Flutamide]", "test_system": "HCI13", "value": 97.9}

Now look at this one.
State, in one line, measured cell viability of OCC(O)C(O)C(O)C(O)CO (centres undefined) 102
